# maps each entry to its logP
test.description: Lipophilicity, Log P measured with SiriusT3 (octanol titration)
Assay type: physicochemical
particulars: octanol / aqueous sample solution

molecule | logP
Cc1cnccc1-c1[nH]c(N)nc1-c1ccc2c(c1)N(C(=O)CN)CCO2 [Comparative Compound (III), reference compound] | 1.03
Cc1cnccc1-c1[nH]c(N)nc1-c1ccc2c(c1)N(C(=O)C(C)(C)N)CCO2 | 1.6

Data provenance is patent US20240228474A1.
